Tested on: A549 NSCLC
Test: NCI tumour cell line growth inhibition, 48 h

{"columns": ["MOLECULE", "EXPERIMENTAL SYSTEM", "GI50"],
 "data": [
  ["Cc1ccccc1NC(=O)c1sc2nc(C)c(C(=O)/C=C/c3ccccc3)cc2c1N", "A549 NSCLC", "1.58 µM"],
  ["COc1ncc(Nc2ncc([C@@H](C)N3CCN(S(C)(=O)=O)CC3)cc2-c2nc(C)nc(N)n2)cc1F", "A549 NSCLC", "0.186 µM"],
  ["CC1=C(SCCC(=O)OC(C[Se]C2=C(C)C(=O)c3ccccc3C2=O)C(=O)NCCCCCC(=O)OCc2ccccc2)C(=O)c2ccccc2C1=O (centres undefined)", "A549 NSCLC", "3.95 µM"],
  ["CCC(C)Nc1ccc(N)cc1 (centres undefined)", "A549 NSCLC", "4.7 µM"],
  ["CCC(C)[C@H](NC(=O)Nc1cc(C(F)(F)F)cc(C(F)(F)F)c1)C(=O)N[C@@H](Cc1cn(C)cn1)C(=O)OC (some centres undefined)", "A549 NSCLC", "1.33 µM"],
  ["COc1ccc(CN2c3ccccc3Sc3ccccc32)c(C(F)(F)F)c1", "A549 NSCLC", "0.807 µM"],
  ["CC(C)(C)c1ccc(Oc2ccc(N)cn2)cc1", "A549 NSCLC", "9.19 µM"],
  ["Cc1cc2c(cc1Cl)S/C(=C/C(=O)O)C(Nc1ccc3ncsc3c1)=NS2(=O)=O", "A549 NSCLC", "> 25 µM"],
  ["CCN(Cc1ccccc1)C1CCN(Cc2cc(Br)ccc2O)CC1", "A549 NSCLC", "69.6 µM"],
  ["COc1ccc2c(c1)[nH]c(=O)c1c3cccc(F)c3cn21", "A549 NSCLC", "0.0667 µM"],
  ["CC(=O)[O-].Cn1ccnc1CNCc1nccn1C.[Cu+2].[O-][Cl+3]([O-])([O-])[O-]", "A549 NSCLC", "> 100 µM"],
  ["CC(N)(Cc1c[nH]c2cccc(F)c12)C(=O)O (centres undefined)", "A549 NSCLC", "> 1000 µM"],
  ["CC1=C2[C@@H](CC1)[C@]1(C)O[C@@](C(C)C)(C[C@H]1OC(=O)CO)[C@H]2OC(=O)C1CC1c1ccccc1 (some centres undefined)", "A549 NSCLC", "11.9 µM"],
  ["O=C1CC(c2cccc(F)c2)Nc2cc3c(cc21)OCO3 (centres undefined)", "A549 NSCLC", "< 0.01 µM"],
  ["CCOC(=O)c1cc2c(cc1Cl)SC(=Nc1ccccc1)N(S(=O)(=O)c1ccc(Cl)cc1)S2(=O)=O", "A549 NSCLC", "26.1 µM"],
  ["O=C(Nc1ccccc1)Nc1ccc2cc3ccc(NC(=O)Nc4ccccc4)cc3nc2c1", "A549 NSCLC", "11.2 µM"],
  ["COc1ccc2c(c1)nc(C(=O)c1ccco1)c(C(F)(F)F)[n+]2[O-]", "A549 NSCLC", "> 100 µM"],
  ["COc1cc(/C=N/Nc2ncnc3c2cnn3-c2ccccc2)ccc1O", "A549 NSCLC", "> 20.5 µM"],
  ["COc1cc(/C=C/C(=O)/C=C/c2ccc(-n3ccnc3C)cc2)ccc1O", "A549 NSCLC", "3.22 µM"]
]}
